- experimentDescription: clinical
- appliedConditions: human, in vivo, topical or ocular, plasma oxybutynin concentration, two 10 cm^2 systems on inner thigh; after 12 hours
propertyLabel: concentration at 12 h (ng/mL)

{"columns": ["compound", "unitSymbol", "value"],
 "data": [
  ["CCN(CC)CC#CCOC(=O)C(O)(c1ccccc1)C1CCCCC1 (stereo not shown)", "ng/mL", 0.9]
]}

* * *

- experimentDescription: clinical
- appliedConditions: human, in vivo, topical or ocular, plasma oxybutynin level, 10 cm^2 device on the penis; within 4 hours
propertyLabel: concentration at 4 h

{"columns": ["molecule", "value"],
 "data": [
  ["CCN(CC)CC#CCOC(=O)C(O)(c1ccccc1)C1CCCCC1 (stereo not shown)", "2 ng/mL"]
]}
